Origin of the recorded values: PubChem BioAssay AID1159580

test: chemical genetic growth profiling, strain panel (AID 1159580);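 also: tested at 20 µM; growth read once vehicle control cultures reached saturation at 30 °C; 1 = growth at the plate median or of vehicle wells; lower values mean less growth of the strain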; settings: S. cerevisiae deletion strains, growth OD, locus YOR136W, strain idh2
The campaign covered roughly 5,500 compounds. About 2,000 (36%) were called active. Roughly 18% stayed inconclusive and do not appear here. Rule as the data show it: active = normalized growth mostly below about 0.91 (no sharp cut-off); inconclusive = no clear call, values can overlap the other calls; inactive = mostly above about 0.92. The list shows a part of the results.
The reply should be one of these categories: Yes (active), No (inactive)

MOLECULE	ASSIGNED CLASS
CC(C)COCC(CN(Cc1ccccc1)c1ccccc1)N1CCCC1 (stereo not drawn)	No

Task item: Fill in: this test's call for CO/N=C(\C(=O)NC1C(=O)N2C(C(=O)O)=C(COC(N)=O)CSC12)c1ccco1 (stereo not drawn) is ___
Reply: Yes

Task item: Okay, and O=C1[C@H](CCC(O)c2ccc(F)cc2)[C@@H](c2ccc(O)cc2)N1c1ccc(F)cc1 (stereo partly drawn) ?
Reply: No

Task item: Okay, and C[N+]1(C)C2CC(OC(=O)[C@@H](CO)c3ccccc3)CC1C1OC12 (stereo partly drawn) ?
Reply: No

Task item: Okay, and CCC(C)c1cnc(CC(C)C)c(=O)n1O (stereo not drawn) ?
Reply: No

Task item: Okay, and O=C(Cn1ccnc1[N+](=O)[O-])NCCO ?
Reply: No

Task item: Okay, and Cc1cc(NC(=O)C2=C(O)c3ccccc3S(=O)(=O)N2C)no1 ?
Reply: No

Task item: Okay, and CO/N=C(\C(=O)N[C@@H]1C(=O)N2C(C(=O)O)=C(COC(C)=O)CS[C@H]12)c1csc(N)n1 ?
Reply: No

----------
test: chemical genetic growth profiling, strain panel (AID 1159580); details: S. cerevisiae deletion strains, growth OD, locus YGL086W, strain mad1
The whole screen tested about 5,500 compounds, of which about 2,000 (36%) were called active. About 18% were inconclusive and are not listed. No stated cut-off is given here; in the data, active means normalized growth mostly below about 0.91 (no sharp cut-off); inconclusive means no clear call, values can overlap the other calls; inactive means mostly above about 0.92. The list shows a part of the results.
The reply should be one of these categories: active, inactive

Some solved entries appear below for comparison.
MOLECULE	ASSIGNED CLASS
C=C1CCC2C(CC2(C)C)C(=C)CC/C1=N\O (stereo not given)	active
C=C1CCC(C2CC(=O)OC2=O)C(=O)CCC2C1CC2(C)C (stereo not given)	inactive
C/C1=C\CCC(=O)C2CC(C)(C)C2CC1 (stereo not given)	inactive

Task item: Fill in: this test's call for C=C1CCC(=O)C(C)CCC2C1CC2(C)C (stereo not given) is ___
Reply: inactive

Task item: Okay, and Oc1ccc2c(c1)OCC1c3cc4c(cc3OC21)OCO4 (stereo not given) ?
Reply: inactive

----------
assay: chemical genetic growth profiling, strain panel (AID 1159580); conditions: S. cerevisiae deletion strains, growth OD, locus YML032C, strain rad52, hits give low values
Hit rate of the full screen: of about 5,500 compounds, about 2,000 (36%) were called active. About 18% were inconclusive and are not listed. Some of the results follow.
OUTCOME MEASURE: normalized growth
Numbers only.

The following molecules have reported results that may help.
MOLECULE	QUANTITATIVE READOUT
COC(=O)[C@@H]1OC(=O)[C@H]2O[C@@]23[C@@]1(C)CCC1[C@@]2(C)CCC(=O)C(C)(C)C2C[C@@H](OC(C)=O)[C@]13C (stereo partly drawn)	0.996
Nc1ccn(C2O[C@H](CO)[C@@H](O)[C@@H]2O)c(=O)n1 (stereo partly drawn)	1.01
CCN(CC)CCOC(=O)c1ccc(N)cc1	0.99
NC[C@@H]1CC[C@@H](N)[C@@H](O[C@H]2[C@H](O)[C@@H](O[C@H]3O[C@H](CO)[C@@H](O)[C@H](N)[C@H]3O)[C@H](N)C[C@@H]2N)O1	1
CC1(C)C2(Cl)C(Cl)C(Cl)C(Cl)(C(Cl)Cl)C1(Cl)C2Cl (stereo not drawn)	0.954

For the 6 molecules below, give their normalized growth values.
1. OC(Cn1cncn1)(Cn1cncn1)c1ccc(F)cc1F
2. O=S1OCC2C(CO1)C1(Cl)C(Cl)=C(Cl)C2(Cl)C1(Cl)Cl (stereo not drawn)
3. COc1cc(-c2coc3cc(OCc4ccccc4)c(OC)c(O)c3c2=O)cc(O)c1OC
4. Clc1cccc(Cl)c1NC1=NCCN1
5. COc1cc(-c2coc3cc(OC)c(OC)c(OC)c3c2=O)cc(OC)c1OC
6. CCOC(=O)[C@H](CCc1ccccc1)N[C@@H](C)C(=O)N1[C@H](C(=O)O)C[C@@H]2CCC[C@@H]21

Reply:
1: 0.995; 2: 0.974; 3: 0.956; 4: 1.02; 5: 1.01; 6: 1.02

For the 6 molecules below, give their normalized growth values.
1. CCCCN(CCCC)CCCOC(=O)c1ccc(N)cc1
2. O=C1[C@H](CCC(O)c2ccc(F)cc2)[C@@H](c2ccc(O)cc2)N1c1ccc(F)cc1 (stereo partly drawn)
3. COc1cc2occ(-c3ccccc3)c(=O)c2c(OC)c1C
4. CCCCOC(=O)c1ccccc1C(=O)OCc1ccccc1
5. COc1ccc(CCN2CCC(Nc3nc4ccccc4n3Cc3ccc(F)cc3)CC2)cc1
6. COc1ccc2c(c1)CCC(c1ccccc1)=C2c1ccc(OCCN2CCCC2)cc1

Reply:
[0.965, 0.979, 0.898, 0.964, 0.955, 0.492]

For the 2 molecules below, give their normalized growth values.
1. CCN(CC)C(=O)c1cccc(C)c1
2. COc1cc(-c2coc3cc(OCc4ccccc4)c(OC)c(O)c3c2=O)cc(OCc2ccccc2)c1OC

Reply:
[0.995, 1]

----------
assay: chemical genetic growth profiling, strain panel (AID 1159580);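 also: tested at 20 µM; growth read once vehicle control cultures reached saturation at 30 °C; 1 = growth at the plate median or of vehicle wells; lower values mean less growth of the strain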; conditions: S. cerevisiae deletion strains, growth OD, locus YGL227W, strain vid30, hits give low values
Out of some 5,500 compounds screened, about 2,000 (36%) were called active. About 18% were inconclusive and are not listed. The list shows a part of the results.
For each record, write down the corresponding normalized growth.
Give bare numbers.

COMPOUND	normalized growth
COc1cc([C@@H]2c3cc4c(c(O)c3C[C@H]3COC(=O)[C@@H]32)OCO4)cc(OC)c1OC	0.983

For the 7 compounds below, give their normalized growth values.
1. CCC(C)(C)C(=O)O[C@H]1C[C@@H](C)C=C2C=C[C@H](C)[C@H](CC[C@@H]3C[C@@H](O)CC(=O)O3)[C@H]21
2. COc1ccc2c(c1OC)C(=O)OC2[C@H]1c2c(cc3c(c2OC)OCO3)CCN1C (stereo not given in full)
3. Oc1ccc(Cl)cc1Cc1cc(Cl)ccc1O
4. CO/N=C(\C(=O)N[C@@H]1C(=O)N2C(C(=O)O)=C(CSc3nc(=O)c(O)nn3C)CS[C@H]12)c1csc(N)n1
5. CC[C@H](C)C(=O)O[C@H]1CCC=C2C=C[C@H](C)C(CCC3C[C@@H](O)CC(=O)O3)[C@H]21 (stereo not given in full)
6. COC(=O)C1=CCCN(C)C1
7. CCC(C)C(=O)O[C@H]1C[C@H](O)C=C2C=C[C@H](C)[C@H](CC[C@@H](O)C[C@@H](O)CC(=O)O)C21 (stereo not given in full)

Reply:
[1.02, 1.01, 0.0709, 0.977, 1, 0.998, 1]

For the 2 compounds below, give their normalized growth values.
1. CO/N=C(\C(=O)NC1C(=O)N2C(C(=O)OC(C)OC(C)=O)=C(COC(N)=O)CSC12)c1ccco1 (stereo not given)
2. OCc1ccccc1O

Reply:
[0.981, 1.03]

----------
experiment: chemical genetic growth profiling, strain panel (AID 1159580);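 also: tested at 20 µM; growth read once vehicle control cultures reached saturation at 30 °C; 1 = growth at the plate median or of vehicle wells; lower values mean less growth of the strain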; conditions: S. cerevisiae deletion strains, growth OD, locus YEL003W, strain gim4, hits give low values
In all, about 5,500 compounds went through this assay and about 2,000 (36%) were called active. About 18% were inconclusive and are not listed. This is one part of the list.
For each record, write down the corresponding normalized growth.
Answers are plain numbers.

The following compounds have reported results that may help.
COMPOUND	normalized growth
OC(Cn1cncn1)(Cn1cncn1)c1ccc(F)cc1F	0.999
C#CCCCCCCCCCCCC(O)CC(O)CO (configuration not stated)	0.98
OCCOCCN1CCN(C2=Nc3ccccc3Sc3ccccc32)CC1	1
CC(C)C(=O)Nc1ccc([N+](=O)[O-])c(C(F)(F)F)c1	1.02
NC(=O)c1cccc(N)c1	0.979

For the 2 compounds below, give their normalized growth values.
1. Cc1c(Cl)cccc1Nc1ccccc1C(=O)O
2. COc1c(OC)c2occc2c2oc(=O)ccc12

Reply:
1: 0.839; 2: 0.982

----------
experiment: chemical genetic growth profiling, strain panel (AID 1159580);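 also: tested at 20 µM; growth read once vehicle control cultures reached saturation at 30 °C; 1 = growth at the plate median or of vehicle wells; lower values mean less growth of the strain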; details: S. cerevisiae deletion strains, growth OD, locus YPL078C, strain atp4, hits give low values
The whole screen tested about 5,500 compounds, of which about 2,000 (36%) were called active. Another 18% or so got no clear call; they are omitted. The list shows a part of the results.
OUTCOME MEASURE: normalized growth
Numbers only.

MOLECULE	OUTCOME MEASURE	QUANTITATIVE READOUT
COC(=O)C(C)c1ccc(C(=O)c2cccs2)cc1 (centres undefined)	normalized growth	1.01
CC(C)[C@@H]1CC[C@@H](C)C[C@H]1O	normalized growth	0.976
COC(=O)C1=CCCN(C)C1	normalized growth	1.03
CO/N=C(\C(=O)N[C@@H]1C(=O)N2C(C(=O)O)=C(COC(C)=O)CS[C@H]12)c1csc(N)n1	normalized growth	0.968
CC(C)C(C)/C=C/C(C)[C@H]1CCC2C3=CCC4CC(=O)CC[C@]4(C)C3CC[C@@]21C (some centres undefined)	normalized growth	1

For the 8 molecules below, give their normalized growth values.
1. Cc1cccc(C)c1NC1=NCCCS1
2. CC(=O)Oc1c(C)cccc1C(=O)O
3. O=C1NC(=O)C(=O)C(=O)N1
4. CC(C)NCC(O)c1cc(O)cc(O)c1 (centres undefined)
5. Oc1ccc(Cl)cc1Cc1cc(Cl)ccc1O
6. CC(C)C(C)/C=C/C(C)C1CCC2C3=CC=C4CC(O)CCC4(C)C3CCC21C (centres undefined)
7. Cc1c(Cl)cccc1Nc1ccccc1C(=O)O
8. Clc1cccc(Cl)c1NC1=NCCN1

Reply:
[1.02, 1.02, 0.987, 0.967, 0.0851, 0.957, 0.646, 0.954]

For the 3 molecules below, give their normalized growth values.
1. CC(C)NNC(=O)c1ccncc1
2. CO[C@@]1(NC(=O)CSCC#N)C(=O)N2C(C(=O)O)=C(CSc3nnnn3C)CSC21 (some centres undefined)
3. C=C1CCC2C(CC2(C)C)C(=C)CC/C1=N\O (centres undefined)

Reply:
1: 1.01; 2: 0.98; 3: 1

For the 5 molecules below, give their normalized growth values.
1. Nc1ccc(N=Nc2ccccc2)c(N)n1
2. CC(=O)OC1CCC2(C)C(=CC=C3C2CCC2(C)C3CCC2C(C)/C=C/C(C)C(C)C)C1(C)C (centres undefined)
3. O=S1OCC2C(CO1)C1(Cl)C(Cl)=C(Cl)C2(Cl)C1(Cl)Cl (centres undefined)
4. CO/N=C(\C(=O)N[C@@H]1C(=O)N2C(C(=O)O)=C(CSc3nc(=O)c(O)nn3C)CS[C@H]12)c1csc(N)n1
5. CC1(C)NC(=O)N(c2ccc([N+](=O)[O-])c(C(F)(F)F)c2)C1=O

Reply:
[0.741, 0.999, 0.987, 0.991, 0.978]
